Study Target: androgen receptor (AR) (Homo sapiens, UniProt P10275, T878A)
Construct: LNCaP cells expressing ARR2PB-FireflyLuc and CMV-RenillaLuc; endogenous in cells; host or cells: LNCaP cells carrying ARR2PB-FireflyLuc and CMV-RenillaLuc reporters
Sequence (P10275 whole entry T878A): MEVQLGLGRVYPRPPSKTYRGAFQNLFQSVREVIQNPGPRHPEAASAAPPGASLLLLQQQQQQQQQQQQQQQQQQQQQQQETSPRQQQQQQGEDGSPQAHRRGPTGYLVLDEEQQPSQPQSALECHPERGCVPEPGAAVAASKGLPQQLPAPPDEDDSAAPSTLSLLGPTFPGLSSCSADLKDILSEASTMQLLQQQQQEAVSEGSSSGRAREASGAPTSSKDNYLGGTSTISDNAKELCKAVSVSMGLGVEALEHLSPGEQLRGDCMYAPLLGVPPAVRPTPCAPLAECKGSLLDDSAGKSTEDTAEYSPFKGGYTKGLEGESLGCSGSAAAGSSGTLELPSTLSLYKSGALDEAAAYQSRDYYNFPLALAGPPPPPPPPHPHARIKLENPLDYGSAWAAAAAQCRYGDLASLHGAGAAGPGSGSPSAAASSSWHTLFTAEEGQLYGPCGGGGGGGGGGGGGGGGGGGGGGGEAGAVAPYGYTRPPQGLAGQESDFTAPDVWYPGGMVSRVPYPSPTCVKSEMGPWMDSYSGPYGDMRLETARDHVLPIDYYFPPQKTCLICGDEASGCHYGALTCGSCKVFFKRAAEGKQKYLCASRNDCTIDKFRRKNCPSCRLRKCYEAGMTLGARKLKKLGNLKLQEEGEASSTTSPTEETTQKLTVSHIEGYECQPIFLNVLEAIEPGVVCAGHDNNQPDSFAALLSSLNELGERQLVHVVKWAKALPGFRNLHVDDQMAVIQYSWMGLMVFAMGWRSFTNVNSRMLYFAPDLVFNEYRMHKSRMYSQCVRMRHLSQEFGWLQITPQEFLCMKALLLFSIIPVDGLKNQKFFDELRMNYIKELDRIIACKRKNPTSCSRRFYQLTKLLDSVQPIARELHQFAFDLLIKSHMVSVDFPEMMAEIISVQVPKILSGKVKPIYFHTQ
Test Method Notes: AR reporter assay in LNCaP cells expressing ARR2PB-FireflyLuc and CMV-RenillaLuc, antagonist mode (% remaining activity, IC50)
Format: cell-based
Test Parameters: 48 h at 37° C., class symbols A-D, read-out: IC50
Protocol: LNCaP cells expressing ARR2PB-FireflyLuc and CMV-RenillaLuc were treated with indicated concentrations of test compounds, enzalutamide (negative control), or DHT (positive control)+/−0.5 nM DHT for 48 h at 37° C. Fluorescent signals were read with the ImageXpress Micro Confocal System. […] Activation (agonist mode) was calculated as % Activation=100×[(ReadSample−LCave)/(HCave−LCave)] where HC is cells treated with 1 uM DHT and LC is cells treated with DMSO. […]
pIC50: −log10 of the molar value.
Assay Metric: pIC50

Check out these entries, answers already filled in.
In [3]: df
Out[3]:
                                   compound  assay_metric        result
0  CC(=O)N1CCc2nc(-c3n[nH]c4cc(F)c(F)cc34)ccc2C1 [Compound 31]         pIC50        < 5.00
1  Cc1cncc(-c2c[nH]c3c(C#N)cccc23)n1 [Compound 175]         pIC50  6.00 to 7.00
2  Cc1nc(-c2c[nH]c3c(C#N)cccc23)cnc1OC(C)CN (centres unmarked) [Compound 287]         pIC50  6.00 to 7.00
3  CCOc1nc(-c2n[nH]c3cc(F)c(F)cc23)ccc1N [Compound 90]         pIC50  5.00 to 6.00

In the following, a different compound is considered.
Kindly note: androgen receptor (AR) (Homo sapiens, UniProt P10275, T878A), N#Cc1cccc2c(-c3ccc(OC4CCNC4)c(Cl)n3)c[nH]c12 (centres unmarked) [Compound 237] , pIC50 value reported: 6.00 to 7.00

---

Study Target: androgen receptor (AR) (Homo sapiens, UniProt P10275, T878A)
Construct: LNCaP cells expressing ARR2PB-FireflyLuc and CMV-RenillaLuc; endogenous in cells; host or cells: LNCaP cells carrying ARR2PB-FireflyLuc and CMV-RenillaLuc reporters
Test Method Notes: AR reporter assay in LNCaP cells expressing ARR2PB-FireflyLuc and CMV-RenillaLuc, antagonist mode (% remaining activity, IC50)
Type: cell-based
Test Parameters: 48 h at 37° C., class symbols A-D, read-out: IC50
List of IC50 values.

# IC50 of Cc1nc(-c2c[nH]c3c(C#N)cccc23)cnc1OCC(C)(C)O [Compound 301] = < 100 nM

# IC50 of COc1nccc2nc(-c3n[nH]c4ccccc34)ccc12 [Compound 12] = < 100 nM

# IC50 of COCCOc1ccc(-c2c[nH]c3c(C#N)cccc23)nc1C [Compound 165] = 100 to 1000 nM

# IC50 of CC1NC(=O)c2ccc(-c3c[nH]c4cc(F)c(F)cc34)nc21 (stereo not drawn) [Compound 136] = 100 to 1000 nM

# IC50 of Cc1nc(-c2c[nH]c3c(C#N)cccc23)cnc1OC1CC2CCC1N2 (stereo not drawn) [Compound 223] = 1000 to 10000 nM

# IC50 of Cc1nc(-c2c[nH]c3c(C#N)cccc23)ccc1NCCO [Compound 190] = 100 to 1000 nM
